- System: DU-145
- PROTOCOL_SUMMARY: Cytotoxicity against human DU145 cells after 48 hrs by SRB assay
- Type: functional, cell-based
- CONDITION_SUMMARY: Homo sapiens, DU-145, 48 h; read-out: GI50
The following compounds are listed with their measured GI50 values.
Form entry: value (nM) — number only.

API: value(readout=GI50, system=DU-145) for record C/C=C1\NC(=O)[C@H](Cc2ccccc2)NC(=O)[C@@H](C(C)C)NC(=O)[C@@H]([C@H](C)CC)NC(=O)[C@H](NC(=O)[C@H](NC(=O)[C@H](CCCNC(=O)C(F)(F)F)NC(=O)[C@H]2CCCN2C(=O)[C@H](NC(=O)[C@@H](NC(=O)[C@@H](NC(=O)[C@H](NC(=O)CC[C@@H](C)CC)C(C)C)[C@@H](C)OC(=O)C(F)(F)F)C(C)C)C(C)C)[C@H](C)CC)[C@H](C)OC(=O)[C@H](C(C)C)NC1=O
1460

Further cases:
API: value(readout=GI50, system=DU-145) for record C/C=C1\NC(=O)[C@H](Cc2ccc(F)c(F)c2)NC(=O)[C@@H](C(C)C)NC(=O)[C@@H]([C@H](C)CC)NC(=O)[C@H](NC(=O)[C@H](NC(=O)[C@H](CCCN)NC(=O)[C@H]2CCCN2C(=O)[C@H](NC(=O)[C@@H](NC(=O)[C@@H](NC(=O)[C@H](NC(=O)CCCC(C)C)C(C)C)[C@@H](C)O)C(C)C)C(C)C)[C@H](C)CC)[C@H](C)OC(=O)[C@H](C(C)C)NC1=O
43

Again, but for C/C=C1\NC(=O)[C@H](Cc2ccccc2)NC(=O)[C@@H](C(C)C)NC(=O)[C@@H]([C@H](C)CC)NC(=O)[C@H](NC(=O)[C@H](NC(=O)[C@H](CCCNC(=O)C[C@](OC)(c2ccccc2)C(F)(F)F)NC(=O)[C@H]2CCCN2C(=O)[C@H](NC(=O)[C@@H](NC(=O)[C@@H](NC(=O)[C@H](NC(=O)CCCC(C)C)C(C)C)[C@@H](C)O)C(C)C)C(C)C)[C@H](C)CC)[C@H](C)OC(=O)[C@H](C(C)C)NC1=O
886

---

The following compounds are listed with their measured GI50 values.
- System: HT-29
- PROTOCOL_SUMMARY: Cytotoxicity against human HT29 cells after 48 hrs by SRB assay
- Format: functional, cell-based
- CONDITION_SUMMARY: Homo sapiens, HT-29, 48 h
Form entry: value (µM) — number only.

# example entries with known answers
API: value(readout=GI50, system=HT-29) for record C/C=C1\NC(=O)[C@H](Cc2ccccc2)NC(=O)[C@@H](C(C)C)NC(=O)[C@@H]([C@H](C)CC)NC(=O)[C@H](NC(=O)[C@H](NC(=O)[C@H](CCCN)NC(=O)[C@H]2CCCN2C(=O)[C@H](NC(=O)[C@H](CCCN)NC(=O)[C@@H](NC(=O)[C@H](NC(=O)CCCC(C)C)C(C)C)[C@@H](C)O)C(C)C)[C@H](C)CC)[C@H](C)OC(=O)[C@H](C(C)C)NC1=O
4.61

Again, but for CC[C@@H](C)[C@@H](NC(=O)[C@H](CCCN)NC(=O)[C@H]1CCCN1C(=O)[C@H](NC(=O)[C@@H](NC(=O)[C@@H](NC(=O)[C@H](NC(=O)CCCC(C)C)C(C)C)[C@@H](C)O)C(C)C)C(C)C)C(=O)N[C@H]1C(=O)N[C@H]([C@H](C)CC)C(=O)N[C@H](C(C)C)C(=O)N[C@@H](Cc2ccccc2)C(=O)N[C@H](CC)C(=O)N[C@@H](C(C)C)C(=O)O[C@H]1C
3.66

Attention now turns to another entry.
API: value(readout=GI50, system=HT-29) for record C/C=C1\NC(=O)[C@H](Cc2ccccc2)NC(=O)[C@@H](C(C)C)NC(=O)[C@@H]([C@H](C)CC)NC(=O)[C@H](NC(=O)[C@H](NC(=O)[C@H](CCCNC(=O)CCCC[C@@H]2SC[C@@H]3NC(=O)N[C@@H]32)NC(=O)[C@H]2CCCN2C(=O)[C@H](NC(=O)[C@@H](NC(=O)[C@@H](NC(=O)[C@H](NC(=O)CCCC(C)C)C(C)C)[C@@H](C)O)C(C)C)C(C)C)[C@H](C)CC)[C@H](C)OC(=O)[C@H](C(C)C)NC1=O
0.362
